# ASSAY TARGET: FLNA pentamer VAKGL of SEQ ID NO: 1 (Homo sapiens)

{"columns": ["LINE NOTATION", "UNIT SYMBOL", "IC50"],
 "data": [
  ["CN1CCC2(CC1)NCC(=O)N2Cc1ccccc1", "pM", 2.76]
]}

###

# ASSAY TARGET: mu opiate receptor (MOR) (Rattus norvegicus, UniProt P33535)
# Construct: from tissue; host or cells: striatum (membrane preparation)
# Sequence (P33535 whole entry): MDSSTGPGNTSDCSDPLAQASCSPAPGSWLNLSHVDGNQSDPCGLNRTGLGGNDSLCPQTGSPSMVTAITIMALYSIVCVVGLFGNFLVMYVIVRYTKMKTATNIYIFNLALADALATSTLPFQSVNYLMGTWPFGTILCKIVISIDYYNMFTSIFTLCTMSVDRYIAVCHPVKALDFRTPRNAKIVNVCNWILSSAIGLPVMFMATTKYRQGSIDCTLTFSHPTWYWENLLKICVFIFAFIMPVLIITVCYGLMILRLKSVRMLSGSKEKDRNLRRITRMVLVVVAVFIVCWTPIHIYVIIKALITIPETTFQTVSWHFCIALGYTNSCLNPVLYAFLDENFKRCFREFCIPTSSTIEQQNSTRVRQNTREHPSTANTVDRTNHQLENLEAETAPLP
# Assay type: biochemical
# CONDITION INFO: [35S]GTPγS binding to Gαo in striatal membranes; compound 1 μM plus 1 μM β-funaltrexamine (MOR antagonist)
ASSAY ENDPOINT: Concentration of FLNA-Binding Compound as Agonist 1 μM + BFNA (%)

{"columns": ["COMPOUND", "MEASUREMENT"],
 "data": [
  ["Cc1ccccc1S(=O)(=O)N1CCC2(CC1)OCCN2S(=O)(=O)c1ccccc1C", 126.8],
  ["OC(COc1ccc(Br)c(F)c1)CN1CCCCC1 (centres unmarked)", 59.9],
  ["O=S(=O)(c1ccc2ccccc2c1)N1CCC2(CC1)OCCN2S(=O)(=O)c1ccc2ccccc2c1 [Compound C0140M]", 83.0],
  ["CC(=O)c1ccc(S(=O)(=O)N2CCC3(CC2)OC(CN(C)C)CN3S(=O)(=O)c2ccc(C(C)=O)cc2)cc1 (centres unmarked)", 47.7],
  ["CS(=O)(=O)c1ccc(S(=O)(=O)N2CCC3(CC2)OCCN3S(=O)(=O)c2ccc(S(C)(=O)=O)cc2)cc1", 26.4],
  ["COc1ccc(OCC(O)CN2CC(C)OC(C)C2)cc1 (centres unmarked)", 167.2],
  ["COc1cc(S(=O)(=O)N2CCC3(CC2)OCCN3S(=O)(=O)c2cc(OC)c(OC)c(OC)c2)cc(OC)c1OC", 59.8],
  ["CC(O)c1ccc(S(=O)(=O)N2CCC3(CC2)OCCN3S(=O)(=O)c2ccc(C(C)O)cc2)cc1 (centres unmarked)", 55.9],
  ["CC1CCC(C(C)C)C(OCC(O)CN2CCCCC2C)C1 (centres unmarked)", 40.4],
  ["COc1c2c(cc3c1C(CC(O)Cc1ccccc1C)N(C)CC3)OCO2 (centres unmarked)", 111.0],
  ["CC1CCC(C(C)C)C(OCC(O)CN2CCN(CCc3ccccc3)CC2)C1 (centres unmarked)", 67.4],
  ["CC(=O)c1ccc(S(=O)(=O)N2CCC3(CC2)NCC(=O)N3Cc2ccccc2)cc1 [Compound C0082M]", 97.6],
  ["COc1c2c(cc3c1C(CC(=O)c1ccncc1)[N+](C)(C)CC3)OCO2 (centres unmarked)", 45.1],
  ["COc1c2c(cc3c1C(CC(=O)c1cccc(C(F)(F)F)c1)[N+](C)(C)CC3)OCO2 (centres unmarked)", 18.6],
  ["CCOc1ccc(C(=O)CC2c3c(cc4c(c3OC)OCO4)CC[N+]2(C)C)cc1F (centres unmarked)", 24.9],
  ["CC1CCC(C(C)C)C(OCC(O)CN2CCN(CCN3CCCCC3)CC2)C1 (centres unmarked)", 150.9],
  ["COc1ccc(C(=O)N2CCC3(CC2)OCCN3C(=O)c2ccc(OC)cc2)cc1", 94.1]
]}

###

Recorded % DAMGO (1 μM) values for a group of compounds are listed next.
# ASSAY TARGET: mu opiate receptor (MOR) (Rattus norvegicus)
# Construct: from tissue; host or cells: striatum (membrane preparation)
# Format: biochemical

{"columns": ["COMPOUND", "% DAMGO (1 μM) (%)"],
 "data": [
  ["COc1c2c(cc3c1C(CC(=O)c1ccc(C#N)cc1)[N+](C)(C)CC3)OCO2 (centres unmarked)", 74.9],
  ["CC1CN(CC(O)COc2ccccc2)CC(C)O1 (centres unmarked)", 54.5],
  ["COc1cc(CC(=O)CC2c3c(cc4c(c3OC)OCO4)CC[N+]2(C)C)cc(OC)c1OC (centres unmarked)", 101.9],
  ["COc1c2c(cc3c1C(CC(=O)Cc1ccccc1C)[N+](C)(C)CC3)OCO2 (centres unmarked)", 99.6],
  ["CC1CCC(C(C)C)C(OCC(O)CN2CCCc3ccccc32)C1 (centres unmarked)", 35.2],
  ["COc1ccc(CCC(=O)CC2c3c(cc4c(c3OC)OCO4)CC[N+]2(C)C)cc1 (centres unmarked)", 79.9],
  ["C=CCN1CCC2(CC1)OCCN2S(=O)(=O)c1ccc(C(C)=O)cc1 [Compound C0096M]", 130.0],
  ["O=C(c1ccc([N+](=O)[O-])cc1)N1CCC2(CC1)OCCN2S(=O)(=O)c1ccc([N+](=O)[O-])cc1 [Compound C0022]", 123.2]
]}
